The entries below come with measured LC50 values attached.
test-method-notes: acute toxicity test from 48–120 hpf based on the OECD FET test
Type: in vivo, zebrafish (Danio rerio)
recorded-conditions: in vivo; zebrafish embryos exposed 48–120 hpf

compound: CCCCC(O)(Cn1cncn1)c1ccc(Cl)cc1Cl (centres unmarked) [HEX, hexaconazole]
LC50: 23.4 µM
--
compound: N[C@@H](Cc1cc(I)c(Oc2ccc(O)c(I)c2)c(I)c1)C(=O)O [T3, 3,3′,5-triiodo-L-thyronine]
LC50: 6 µM
--
compound: CC(C)(c1ccc(O)cc1)c1ccc(O)cc1 [BPA, bisphenol A]
LC50: 41.6 µM
--
compound: CC1(C)NC(=O)N(c2ccc([N+](=O)[O-])c(C(F)(F)F)c2)C1=O [NIL, nilutamide]
LC50: 32.9 µM
--
compound: C[C@]12CC[C@H]3[C@@H](CCC4=CC(=O)CC[C@@H]43)[C@@H]1CC[C@@H]2O [NAN, nandrolone]
LC50: 497 µM

----------
Test system: cytochrome P450 2k22 (cyp2k22)
test-method-notes: cyp2k22 gene expression (qPCR) in exposed zebrafish embryos
recorded-conditions: read-out: EC50 cyp2k22; zebrafish embryos exposed 48–120 hpf; mRNA by qPCR
pEC50: −log10 of the molar value.

compound: C[C@]12CCC(=O)C=C1CC[C@@H]1[C@@H]2CC[C@@]2(C)[C@H]1CC[C@]2(C)O [17α-MT, 17α-methyltestosterone]
pEC50: 7.30

----------
experimental-target: brain aromatase (cyp19a1b)
test-method-notes: cyp19a1b gene expression (qPCR) in exposed zebrafish embryos
Type: in vivo, zebrafish (Danio rerio)
recorded-conditions: zebrafish embryos exposed 48–120 hpf; mRNA by qPCR

smi: C[C@]12CCC(=O)C=C1CC[C@@H]1[C@@H]2CC[C@@]2(C)[C@H]1CC[C@]2(C)O
EC50 [nM]: 620

----------
Test system: brain aromatase (cyp19a1b)
test-method-notes: cyp19a1b gene expression (qPCR) in exposed zebrafish embryos
Assay type: in vivo, zebrafish (Danio rerio)
recorded-conditions: log of EC50 in μM; 48-120 h; our study

molecule: C[C@]12CCC(=O)C=C1CC[C@@H]1[C@@H]2CC[C@@]2(C)[C@H]1CC[C@]2(C)O
LogEC50 (cyp19a1b mRNA): -0.2076
--
molecule: CC(C)(c1ccc(O)cc1)c1ccc(O)cc1
LogEC50 (cyp19a1b mRNA): 0.6981
--
molecule: CC/C(=C(/CC)c1ccc(O)cc1)c1ccc(O)cc1
LogEC50 (cyp19a1b mRNA): -2
--
molecule: C[C@]12CC[C@@H]3c4ccc(O)cc4CC[C@H]3[C@@H]1CC[C@@H]2O [E2, 17β-estradiol]
LogEC50 (cyp19a1b mRNA): -1.046

----------
experimental-target: cytosolic sulfotransferase 2 family 2 (sult2st3)
test-method-notes: sult2st3 gene expression (qPCR) in exposed zebrafish embryos
Format: in vivo, zebrafish (Danio rerio)
recorded-conditions: zebrafish embryos exposed 48–120 hpf; mRNA by qPCR; read-out: EC50 sult2st3
pEC50: −log10 of the molar value.
readout-kind: pEC50

smi: C[C@]12CCC(=O)C=C1CC[C@@H]1[C@@H]2CC[C@@]2(C)[C@H]1CC[C@]2(C)O
readout-kind: pEC50
experimental-value: 7.00

----------
experimental-target: iodothyronine deiodinase 2 (dio2)
test-method-notes: dio2 gene expression (qPCR) in exposed zebrafish embryos
Type: in vivo, zebrafish (Danio rerio)
recorded-conditions: zebrafish embryos exposed 48–120 hpf; mRNA by qPCR; read-out: EC50 dio2
pEC50: −log10 of the molar value.
readout-kind: pEC50

smi: C[C@]12CCC(=O)C=C1CC[C@@H]1[C@@H]2CC[C@@]2(C)[C@H]1CC[C@]2(C)O
experimental-target: iodothyronine deiodinase 2 (dio2)
readout-kind: pEC50
experimental-value: 7.05
